B1: TBLR1-LgBiT wild type [not stated] / SETD5-SmBiT [not stated] (parent complex)
chain 1: MSISSDEVNFLVYRYLQESGFSHSAFTFGIESHISQSNINGALVPPAALISIIQKGLQYVEAEVSINEDGTLFDGRPIESLSLIDAVMPDVVQTRQQAYRDKLAQQQAAAAAAAAAAASQQGSAKNGENTANGEENGAHTIANNHTDMMEVDGDVEIPPNKAVVLRGHESEVFICAWNPVSDLLASGSGDSTARIWNLSENSTSGSTQLVLRHCIREGGQDVPSNKDVTSLDWNSEGTLLATGSYDGFARIWTKDGNLASTLGQHKGPIFALKWNKKGNFILSAGVDKTTIIWDAHTGEAKQQFPFHSAPALDVDWQSNNTFASCSTDMCIHVCKLGQDRPIKTFQGHTNEVNAIKWDPTGNLLASCSDDMTLKIWSMKQDNCVHDLQAHNKEIYTIKWSPTGPGTNNPNANLMLASASFDSTVRLWDVDRGICIHTLTKHQEPVYSVAFSPDGRYLASGSFDKCVHIWNTQTGALVHSYRGTGGIFEVCWNAAGDKVGASASDGSVCVLDLRK
chain 2: MSIAIPLGVTTSDTSYSDMAAGSDPESVEASPAVNEKSVYSTHNYGTTQRHGCRGLPYATIIPRSDLNGLPSPVEERCGDSPNSEGETVPTWCPCGLSQDGFLLNCDKCRGMSRGKVIRLHRRKQDNISGGDSSATESWDEELSPSTVLYTATQHTPTSITLTVRRTKPKKRKKSPEKGRAAPKTKKIKNSPSEAQNLDENTTEGWENRIRLWTDQYEEAFTNQYSADVQNALEQHLHSSKEFVGKPTILDTINKTELACNNTVIGSQMQLQLGRVTRVQKHRKILRAARDLALDTLIIEYRGKVMLRQQFEVNGHFFKKPYPFVLFYSKFNGVEMCVDARTFGNDARFIRRSCTPNAEVRHMIADGMIHLCIYAVSAITKDAEVTIAFDYEYSNCNYKVDCACHKGNRNCPIQKRNPNATELPLLPPPPSLPTIGAETRRRKARRKELEMEQQNEASEENNDQQSQEVPEKVTVSSDHEEVDNPEEKPEEEKEEVIDDQENLAHSRRTREDRKVEAIMHAFENLEKRKKRRDQPLEQSNSDVEITTTTSETPVGEETKTEAPESEVSNSVSNVTIPSTPQSVGVNTRRSSQAGDIAAEKLVPKPPPAKPSRPRPKSRISRYRTSSAQRLKRQKQANAQQAELSQAALEEGGSNSLVTPTEAGSLDSSGENRPLTGSDPTVVSITGSHVNRAASKYPKTKKYLVTEWLNDKAEKQECPVECPLRITTDPTVLATTLNMLPGLIHSPLICTTPKHYIRFGSPFIPERRRRPLLPDGTFSSCKKRWIKQALEEGMTQTSSVPQETRTQHLYQSNENSSSSSICKDNADLLSPLKKWKSRYLMEQNVTKLLRPLSPVTPPPPNSGSKSPQLATPGSSHPGEEECRNGYSLMFSPVTSLTTASRCNTPLQFELCHRKDLDLAKVGYLDSNTNSCADRPSLLNSGHSDLAPHPSLGPTSETGFPSRSGDGHQTLVRNSDQAFRTEFNLMYAYSPLNAMPRADGLYRGSPLVGDRKPLHLDGGYCSPAEGFSSRYEHGLMKDLSRGSLSPGGERACEGVPSAPQNPPQRKKVSLLEYRKRKQEAKENSAGGGGDSAQSKSKSAGAGQGSSNSVSDTGAHGVQGSSARTPSSPHKKFSPSHSSMSHLEAVSPSDSRGTSSSHCRPQENISSRWMVPTSVERLREGGSIPKVLRSSVRVAQKGEPSPTWESNITEKDSDPADGEGPETLSSALSKGATVYSPSRYSYQLLQCDSPRTESQSLLQQSSSPFRGHPTQSPGYSYRTTALRPGNPPSHGSSESSLSSTSYSSPAHPVSTDSLAPFTGTPGYFSSQPHSGNSTGSNLPRRSCPSSAASPTLQGPSDSPTSDSVSQSSTGTLSSTSFPQNSRSSLPSDLRTISLPSAGQSAVYQASRVSAVSNSQHYPHRGSGGVHQYRLQPLQGSGVKTQTGLS

# Variants of: B1
# Method: NanoLuc complementation assay; n = 6–7 independent transfections per TBLR1 mutant; read off a plot
Outcome Measure: ratio to parent

These recorded examples may help you get a feel for the data.
>  <Variant Description>
chain 1 D370N

>  <Value Observed>
~0.05

$$$$
>  <Variant Description>
chain 1 D328H

>  <Value Observed>
~0.55

$$$$
>  <Variant Description>
chain 1 H213Q

>  <Value Observed>
~1.2

$$$$

Item: chain 1 A311P | ratio to parent: ~0.55

Item: chain 1 Y245C | ratio to parent: ~1.2

Item: chain 1 T321S | ratio to parent: ~1.1

Item: chain 1 Y446C | ratio to parent: ~1.3

Item: chain 1 P444R | ratio to parent: ~0.7

Item: chain 1 D369E | ratio to parent: ~0.15

Item: chain 1 Y446D | ratio to parent: ~1.1

Item: chain 1 G460D | ratio to parent: ~0.07

Item: chain 1 L282P | ratio to parent: ~0.05

Item: chain 1 S459R | ratio to parent: ~0.06

Item: chain 1 S417R | ratio to parent: ~0.06

Item: chain 1 D328G | ratio to parent: ~0.6

Item: chain 1 F270L | ratio to parent: ~1.8

Item: chain 1 H441R | ratio to parent: ~0.55

Item: chain 1 Y395C | ratio to parent: ~0.87
